Assayed target: Kynurenine 3-monooxygenase (Rattus norvegicus) (UniProt O88867)
Sequence (O88867 whole entry, looked up): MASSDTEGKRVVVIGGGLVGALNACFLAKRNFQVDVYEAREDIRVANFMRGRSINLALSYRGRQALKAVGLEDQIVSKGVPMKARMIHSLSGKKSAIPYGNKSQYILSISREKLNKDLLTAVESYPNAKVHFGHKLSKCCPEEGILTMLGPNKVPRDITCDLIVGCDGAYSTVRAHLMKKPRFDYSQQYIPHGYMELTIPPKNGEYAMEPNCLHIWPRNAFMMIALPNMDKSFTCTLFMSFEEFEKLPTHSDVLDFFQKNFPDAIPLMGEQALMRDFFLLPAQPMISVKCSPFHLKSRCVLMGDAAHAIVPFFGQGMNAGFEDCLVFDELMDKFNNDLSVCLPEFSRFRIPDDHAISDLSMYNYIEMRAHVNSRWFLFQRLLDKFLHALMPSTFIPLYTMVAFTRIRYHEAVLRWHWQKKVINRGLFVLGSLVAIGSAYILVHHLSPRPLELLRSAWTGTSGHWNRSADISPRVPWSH
Assay procedure: Inhibition of Kynurenine-3-hydroxylase enzyme isolated from the rat liver at 10 uM
inhibition by entry:
Return type: number; implicit unit %.

| Entry smiles | Assay result |
| --- | --- |
| COC(=O)C(=N)/C=C(\O)c1ccc(Cl)c(Cl)c1 | 37 |

Quote inhibition reported for COC(=O)C(=O)/C=C(\O)c1ccc(Cl)cc1 please.
38

Return value of inhibition for input N/C(=C\C(=O)c1ccccc1Cl)C(=O)O , no commentary.
19

Taken from ChEMBL document CHEMBL1133168.
